Data credit: patent EP0316592A2

System: Raji/0
assay name: Cytostatic effect (cell proliferation, Coulter count)
Type: cell-based
applied conditions: Homo sapiens, cell number reduced by 50%, 68-72 hours, read-out: ID50 Raji/0
Answer each item with its documented pIC50.
One number for each entry, as −log10 of the molar value.

Nc1ccn([C@H]2CC[C@@H](CO)O2)c(=O)n1
4.64

Which pIC50 value is on record for Nc1ccn([C@H]2C[C@H](F)[C@@H](CO)O2)c(=O)n1 ?
4.02

----------
System: Raji/TK-
assay name: Cytostatic effect (cell proliferation, Coulter count)
Format: cell-based
applied conditions: Homo sapiens, cell number reduced by 50%, 68-72 hours, read-out: ID50 Raji/TK-
pIC50: −log10 of the molar value.
measurement kind: pIC50

Here is how some molecules turned out for pIC50.
CCc1cn([C@H]2C[C@H](N=[N+]=[N-])[C@@H](CO)O2)c(=O)[nH]c1=O [AzddEtUrd, 3′-azido-2′,3′-dideoxy-5-ethyluridine]
< 3.00
[N-]=[N+]=N[C@H]1C[C@H](n2ccc(=O)[nH]c2=O)O[C@@H]1CO [AzddUrd, 3′-azido-2′,3′-dideoxyuridine]
< 3.00

Need pIC50 for each of these molecules.
1. CCc1cn([C@H]2CC[C@@H](CO)O2)c(=O)[nH]c1=O [ddEtUrd, 2′,3′-Dideoxy-5-ethyluridine]
2. Nc1ccn([C@H]2CC[C@@H](CO)O2)c(=O)n1 [ddCyd, 2′,3′-Dideoxycytidine]

< 3.00
4.55
